Origin of measurements: paper PMC8159961

- TGT: human 5-HT6 receptor (Homo sapiens, UniProt P50406)
- Construct: expressed in transfected cells
- Sequence (P50406 whole entry): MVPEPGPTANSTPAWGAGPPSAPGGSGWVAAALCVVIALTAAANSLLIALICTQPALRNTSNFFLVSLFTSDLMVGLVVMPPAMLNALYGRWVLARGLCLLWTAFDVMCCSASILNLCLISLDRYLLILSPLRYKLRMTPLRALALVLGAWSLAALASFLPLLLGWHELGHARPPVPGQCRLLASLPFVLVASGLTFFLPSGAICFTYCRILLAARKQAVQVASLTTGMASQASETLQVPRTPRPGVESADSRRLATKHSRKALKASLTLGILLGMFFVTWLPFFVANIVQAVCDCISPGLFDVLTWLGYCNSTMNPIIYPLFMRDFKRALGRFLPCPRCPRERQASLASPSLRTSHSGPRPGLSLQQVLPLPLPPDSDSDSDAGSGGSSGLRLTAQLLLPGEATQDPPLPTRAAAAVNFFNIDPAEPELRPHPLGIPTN
- ASSAY NAME: GPCR radioligand binding assay, [3H]-LSD displacement, HEK293 membranes
- RECORDED CONDITIONS: 5-HT6; replicate exp_2; read-out: %inh 5-HT6 exp_2
EXPERIMENTAL ENDPOINT: inhibition at 10 µM (%)
Only the number, expressed in %, is required.

c1cnc2ncccc2c1
41

Q. Sample O=C1NC(=O)/C(=C\c2cccs2)N1 — what was its inhibition at 10 µM?
A. 32

Q. # lookup: inhibition at 10 µM of CC1CCc2sc(C(=O)O)cc2C1 (centres unmarked)
A. 38

Q. Dear colleague, I am looking for the recorded inhibition at 10 µM of the following compound: Nc1nnc2ccccn12
A. 35

Q. # query: inhibition at 10 µM of entry CC(=O)c1sc(-c2ccc(O)cc2)nc1C [E1]
A. 58
